Listed compounds paired with reported log10 of IC50
molecular target: human IsK protein (UniProt P15382+P70057); construct: channel formed with endogenous oocyte KCNQ1; two-microelectrode voltage clamp; assay: cell-based; settings: human IsK expressed in Xenopus oocytes, -10 mV voltage jumps lasting 15 s, room temperature, pH 7.5; Hill equation
Sequence (P70057 whole entry): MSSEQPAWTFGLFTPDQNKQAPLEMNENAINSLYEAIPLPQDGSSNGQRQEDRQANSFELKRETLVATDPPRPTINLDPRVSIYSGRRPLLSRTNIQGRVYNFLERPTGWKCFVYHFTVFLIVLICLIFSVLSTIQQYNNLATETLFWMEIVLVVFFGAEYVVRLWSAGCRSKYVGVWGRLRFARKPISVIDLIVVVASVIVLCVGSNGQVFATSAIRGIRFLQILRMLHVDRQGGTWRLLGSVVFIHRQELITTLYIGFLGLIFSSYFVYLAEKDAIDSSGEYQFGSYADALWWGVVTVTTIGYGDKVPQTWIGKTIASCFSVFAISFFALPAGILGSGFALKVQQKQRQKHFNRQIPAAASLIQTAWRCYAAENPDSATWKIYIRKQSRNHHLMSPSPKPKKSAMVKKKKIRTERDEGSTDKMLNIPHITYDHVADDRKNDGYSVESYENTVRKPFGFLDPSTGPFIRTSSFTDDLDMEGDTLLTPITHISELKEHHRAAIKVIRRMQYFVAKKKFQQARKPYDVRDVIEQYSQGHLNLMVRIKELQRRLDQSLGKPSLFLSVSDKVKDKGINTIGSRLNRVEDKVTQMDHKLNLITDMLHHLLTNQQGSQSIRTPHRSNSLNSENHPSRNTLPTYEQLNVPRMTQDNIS
experimental_readout: log10 of IC50 (log10 of the value in nM)

| compound | experimental_readout | value |
| --- | --- | --- |
| CCS(=O)(=O)N(CC(=O)Nc1cccnc1)C1CC(C)(C)Oc2ccc(F)cc21 (stereo not shown) [Example 23] | log10 of IC50 | 2.74 |
| CCCCOc1ccc2c(c1)C(N(CCOCC(=O)O)S(C)(=O)=O)CC(C)(C)O2 (stereo not shown) [Example 43] | log10 of IC50 | 3.89 |
| Cc1ccc2c(c1)C(N(CCCCC(=O)OCCN(C)Cc1ccccc1)S(C)(=O)=O)CC(C)(C)O2 (stereo not shown) [Example 10] | log10 of IC50 | 2.90 |
| CN(CCc1ccccc1)C(=O)CN(C1CC(C)(C)Oc2ccc(OCc3ccccc3)cc21)S(C)(=O)=O (stereo not shown) [Example 39] | log10 of IC50 | 2.49 |
| CCS(=O)(=O)N(CC(=O)NCCc1ccccc1)C1CC(C)(C)Oc2ccc(F)cc21 (stereo not shown) [Example 21] | log10 of IC50 | 1.66 |
| CCS(=O)(=O)N(CC(=O)NCCc1ccccn1)C1CC(C)(C)Oc2ccc(F)cc21 (stereo not shown) [Example 9] | log10 of IC50 | 3.20 |
| CC1(C)Oc2ccc(Cl)cc2[C@@H](N(CC(=O)NCCc2ccccc2)S(C)(=O)=O)[C@@H]1O (relative stereo) [Example 58] | log10 of IC50 | 2.70 |
| CCS(=O)(=O)N(CC(=O)Nc1cnccn1)C1CC(C)(C)Oc2ccc(F)cc21 (stereo not shown) [Example 25] | log10 of IC50 | 2.65 |
| CCS(=O)(=O)N(CC(=O)Nc1ccccn1)C1CC(C)(C)Oc2ccc(F)cc21 (stereo not shown) [Example 14] | log10 of IC50 | 2.26 |
| CCCCOc1ccc2c(c1)C(N(CCCOCCO)S(C)(=O)=O)CC(C)(C)O2 (stereo not shown) [Example 45] | log10 of IC50 | 2.65 |

---

biological target: human IsK protein (UniProt P15382+P70057); construct: channel formed with endogenous oocyte KCNQ1; two-microelectrode voltage clamp; experiment: cell-based; details: human IsK expressed in Xenopus oocytes, -10 mV voltage jumps lasting 15 s, room temperature, pH 7.5; Hill equation
pIC50: −log10 of the molar value. Where a name gives a salt, the structure may show the parent alone.
Entry flag: T if pIC50 reaches 6; F if it does not.

| molecule | discrete_label |
| --- | --- |
| CCOC(=O)CN(C)C(=O)CN(C1CC(C)(C)Oc2ccc(OCc3ccccc3)cc21)S(C)(=O)=O (stereo not shown) | T |
| CCS(=O)(=O)N(CC(=O)OCCN(C)Cc1ccccc1)C1CC(C)(C)Oc2ccc(F)cc21 (stereo not shown) | T |
| CN(CCc1ccccn1)C(=O)CN(C1CC(C)(C)Oc2ccc(OCc3ccccc3)cc21)S(C)(=O)=O (stereo not shown) [Example 40, hydrochloride] | T |
| CCCCOc1ccc2c(c1)C(N(CCOCCOC)S(C)(=O)=O)CC(C)(C)O2 (stereo not shown) | T |
| CCS(=O)(=O)N(CC(=O)Nc1nc2ccccc2n1C)C1CC(C)(C)Oc2ccc(F)cc21 (stereo not shown) | F |
| CCCCOc1ccc2c(c1)C(N(CC(=O)NC(=N)N)S(C)(=O)=O)CC(C)(C)O2 (stereo not shown) | F |
| CCCCNC(=O)CCCN(C1CC(C)(C)Oc2ccc(OCc3ccccc3)cc21)S(C)(=O)=O (stereo not shown) | T |
| CCOC(=O)CN(C)C(=O)CCCN(C1CC(C)(C)Oc2ccc(OCc3ccccc3)cc21)S(C)(=O)=O (stereo not shown) | T |
| CCS(=O)(=O)N(CC(=O)Nc1nc2ccccc2[nH]1)C1CC(C)(C)Oc2ccc(F)cc21 (stereo not shown) | T |
| CC1(C)CC(N(CC(=O)NCCc2ccccn2)S(C)(=O)=O)c2cc(OCc3ccccc3)ccc2O1 (stereo not shown) | T |
